Please respond with reported kd for every item in the list.
- TARGET UNDER TEST: T1, dimeric human PRLR (hPRLR.mFc; SEQ ID NO:402) (Homo sapiens, UniProt P16471)
- T1 construct: dimeric (hPRLR.mFc)
- T1 sequence (P16471 with tags, fused parts or gaps): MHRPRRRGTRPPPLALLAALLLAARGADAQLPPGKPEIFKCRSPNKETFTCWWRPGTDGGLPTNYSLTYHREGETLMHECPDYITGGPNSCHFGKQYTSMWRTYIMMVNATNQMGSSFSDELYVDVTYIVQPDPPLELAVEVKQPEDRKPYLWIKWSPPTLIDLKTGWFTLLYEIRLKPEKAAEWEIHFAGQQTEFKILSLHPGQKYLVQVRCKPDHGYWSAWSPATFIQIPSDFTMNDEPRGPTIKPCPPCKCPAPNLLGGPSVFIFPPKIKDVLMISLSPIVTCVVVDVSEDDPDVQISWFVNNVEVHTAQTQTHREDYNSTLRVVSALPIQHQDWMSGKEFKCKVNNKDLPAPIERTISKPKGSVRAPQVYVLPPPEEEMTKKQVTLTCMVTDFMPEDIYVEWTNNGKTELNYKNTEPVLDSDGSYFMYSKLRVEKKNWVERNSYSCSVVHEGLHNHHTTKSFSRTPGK
- ASSAY: Surface plasmon resonance (Biacore T200), antibody-capture format
- Format: binding
- SETTINGS: 37° C., analyte hPRLR.mFc
Report the figure along with its unit, number first.

Item: H1H6953N: anti-PRLR antibody, human IgG1 Fc form of H1M6953N of Table 1; HCVR/LCVR SEQ ID NOs 274/282 (antibody, V domains shown) VH: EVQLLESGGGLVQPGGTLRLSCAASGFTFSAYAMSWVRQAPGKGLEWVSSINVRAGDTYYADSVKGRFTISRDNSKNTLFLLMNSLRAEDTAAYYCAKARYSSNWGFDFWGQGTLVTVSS VL: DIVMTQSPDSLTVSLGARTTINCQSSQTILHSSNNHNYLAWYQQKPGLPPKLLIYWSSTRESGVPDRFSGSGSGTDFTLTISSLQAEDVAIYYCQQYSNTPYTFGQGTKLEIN | kd: 0.00017 s⁻¹

Item: H1H6975N: anti-PRLR antibody, human IgG1 Fc form of H2M6975N of Table 1; HCVR/LCVR SEQ ID NOs 370/378 (antibody, V domains shown, human IgG1 Fc) VH: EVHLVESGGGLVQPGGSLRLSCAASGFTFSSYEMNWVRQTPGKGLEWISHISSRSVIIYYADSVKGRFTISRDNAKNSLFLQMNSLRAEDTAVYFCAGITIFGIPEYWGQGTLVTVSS VL: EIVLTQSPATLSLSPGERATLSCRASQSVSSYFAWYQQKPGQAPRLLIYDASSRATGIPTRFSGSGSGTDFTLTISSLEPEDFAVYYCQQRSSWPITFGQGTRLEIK | kd: 7.09e-05 s⁻¹

Item: H1H6795P: fully human anti-PRLR antibody, human IgG1 Fc; HCVR/LCVR SEQ ID NOs 162/170 (antibody, V domains shown) VH: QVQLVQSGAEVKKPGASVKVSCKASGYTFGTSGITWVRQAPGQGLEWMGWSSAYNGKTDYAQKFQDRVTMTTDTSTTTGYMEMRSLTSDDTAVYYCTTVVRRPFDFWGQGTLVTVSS VL: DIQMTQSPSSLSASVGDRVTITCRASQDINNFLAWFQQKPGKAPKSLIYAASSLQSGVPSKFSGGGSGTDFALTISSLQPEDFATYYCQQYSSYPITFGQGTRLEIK | kd: 7.77e-05 s⁻¹

Item: H1H6800P: fully human anti-PRLR antibody, human IgG1 Fc; HCVR/LCVR SEQ ID NOs 194/202 (antibody, V domains shown) VH: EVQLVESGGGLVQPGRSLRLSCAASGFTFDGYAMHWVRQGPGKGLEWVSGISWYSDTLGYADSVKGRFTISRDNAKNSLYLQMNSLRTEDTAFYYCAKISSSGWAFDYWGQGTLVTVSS VL: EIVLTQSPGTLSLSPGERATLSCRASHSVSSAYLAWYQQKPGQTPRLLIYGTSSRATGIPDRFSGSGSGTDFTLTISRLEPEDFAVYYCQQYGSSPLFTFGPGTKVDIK | kd: 0.000147 s⁻¹
